# assayed_target: human TLR9 (Homo sapiens)
# Sequence (Q9NR96 26-1032): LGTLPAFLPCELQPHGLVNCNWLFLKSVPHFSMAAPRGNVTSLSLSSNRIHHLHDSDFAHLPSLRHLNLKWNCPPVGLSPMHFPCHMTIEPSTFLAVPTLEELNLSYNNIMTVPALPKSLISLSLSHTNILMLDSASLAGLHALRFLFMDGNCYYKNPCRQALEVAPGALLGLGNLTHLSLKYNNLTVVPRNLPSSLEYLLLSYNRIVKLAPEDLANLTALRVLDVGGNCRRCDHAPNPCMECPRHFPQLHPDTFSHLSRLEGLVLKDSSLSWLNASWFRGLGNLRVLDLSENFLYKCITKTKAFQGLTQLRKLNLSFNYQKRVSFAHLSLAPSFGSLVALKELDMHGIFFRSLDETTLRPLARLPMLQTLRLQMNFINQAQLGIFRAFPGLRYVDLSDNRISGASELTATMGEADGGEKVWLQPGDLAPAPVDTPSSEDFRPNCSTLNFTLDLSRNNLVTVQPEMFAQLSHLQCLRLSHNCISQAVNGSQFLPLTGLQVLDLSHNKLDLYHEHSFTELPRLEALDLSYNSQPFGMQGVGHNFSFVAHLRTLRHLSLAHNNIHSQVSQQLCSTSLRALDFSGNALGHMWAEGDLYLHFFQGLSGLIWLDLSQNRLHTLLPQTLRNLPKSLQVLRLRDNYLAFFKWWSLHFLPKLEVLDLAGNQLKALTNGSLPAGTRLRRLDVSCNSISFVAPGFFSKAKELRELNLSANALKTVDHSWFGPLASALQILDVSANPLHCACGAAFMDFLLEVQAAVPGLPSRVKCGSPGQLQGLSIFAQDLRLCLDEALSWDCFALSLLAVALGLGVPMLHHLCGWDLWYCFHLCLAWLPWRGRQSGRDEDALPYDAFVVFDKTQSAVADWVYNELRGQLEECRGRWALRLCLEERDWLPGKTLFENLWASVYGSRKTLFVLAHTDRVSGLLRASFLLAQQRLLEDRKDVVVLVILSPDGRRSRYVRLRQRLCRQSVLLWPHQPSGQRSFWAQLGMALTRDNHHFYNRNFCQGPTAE
# assay_protocol: TLR9 inhibition reporter assay (HEK-Blue cells, SEAP reporter)
# condition_info: HEK-Blue cells overexpressing human TLR9; stimulated with ODN2006 5 nM; SEAP read after 22 hour; dose range 0.05 nM-50 μM
experimental_readout: IC50 (nM)
State the answer as a number, implicitly in nM.

## Input For the compound CNC(=O)Nc1ccc(-c2cc3cc(-c4ccc(N5CCN(C(C)C)CC5)cc4)ccc3[nH]c2=O)cc1 [Example 49] , what IC50 is on record?
## Output 239

## Input For the compound CC(C)N1CCN(c2ccc(-c3ccc4[nH]c(=O)c(-c5c(F)c(F)c(F)c(F)c5F)cc4c3)cc2)CC1 [Example 40] , what IC50 is on record?
## Output 399

## Input For the compound CCCC(=O)Nc1ccc(-c2cc3cc(-c4ccc(N5CCN(C(C)C)CC5)cc4)ccc3[nH]c2=O)cc1 [Example 21] , what IC50 is on record?
## Output 214

## Input For the compound CC(C)N1CCN(c2ccc(-c3ccc4[nH]c(=O)c(-c5ccc(Cl)cc5)cc4c3)cc2)CC1 [Example 39] , what IC50 is on record?
## Output 387

## Input For the compound CC(C)N1CCN(c2ccc(-c3ccc4[nH]c(=O)c(-c5cccc(F)c5)cc4c3)cc2)CC1 [Example 47] , what IC50 is on record?
## Output 857

***
## Input For the compound O=c1[nH]c2ccc(-c3ccc(C4CCN(C5COC5)CC4)cc3)cc2cc1-c1ccc(OC(F)F)cc1 [Example 91] , what IC50 is on record?
## Output 512

## Input For the compound CC(C)N1CCN(c2ccc(-c3ccc4[nH]c(=O)c(-c5ccc(S(C)(=O)=O)cc5)cc4c3)cc2)CC1 [Example 4] , what IC50 is on record?
## Output 206

## Input For the compound CN1CCC(c2ccc3[nH]c(=O)c(-c4ccc(S(C)(=O)=O)cc4)cc3c2)CC1 [Example 97] , what IC50 is on record?
## Output 960

## Input For the compound CCc1c(-c2ccc(S(C)(=O)=O)cc2)c(=O)[nH]c2ccc(C3CCN(C4CCN(C(C)C)CC4)CC3)cc12 [Example 66] , what IC50 is on record?
## Output 57

## Input For the compound CC(C)N1CCN(c2ccc(-c3ccc4[nH]c(=O)c(-c5ccncc5)cc4c3)cc2)CC1 [Example 17] , what IC50 is on record?
## Output 171
